Target: T1, human HIF-2α PAS-B (240-350), recombinant, His-tagged (human, UniProt Q99814 240-350, labelled with Monolith NT-647 dye for MST)
T1 construct: range 240-350; Expressed in E. coli BL21(DE3)-Rosetta from pET28a; also called PAS-B domain of HIF-2α; not shown: His tag from pET28a vector (BamHI/SacI cloning)
T1 sequence (Q99814 240-350): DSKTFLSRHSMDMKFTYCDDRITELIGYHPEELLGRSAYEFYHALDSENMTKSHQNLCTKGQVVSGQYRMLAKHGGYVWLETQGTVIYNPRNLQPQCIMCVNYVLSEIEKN
Experiment: MST, HIF-2α PAS-B (column 2α (µM))
Hi! Just check whether Kd is below 60 µM. Below gives Y, equal or above gives N.

>>> print(df.to_string())
                                     binder  class_name
0  CALIIF (head-to-tail cyclic (cyclo-), also called CALIIF; cyclic peptide #10) [cyclo-cys ala leu ile ile phe]           Y
1  CRLIIA (head-to-tail cyclic (cyclo-), also called CRLIIA; cyclic peptide #8) [cyclo-cys arg leu ile ile ala]           N
2  CRLIIF (head-to-tail cyclic (cyclo-), also called CRLIIF; cyclic peptide #4) [cyclo-cys arg leu ile ile phe]           Y
3  CRLIAF (head-to-tail cyclic (cyclo-), also called CRLIAF; cyclic peptide #7) [cyclo-cys arg leu ile ala phe]           N
4  CRAIIF (head-to-tail cyclic (cyclo-), also called CRAIIF; cyclic peptide #11) [cyclo-cys arg ala ile ile phe]           Y
